Bliss excess values for the molecules below.
System: HT-29 (Colorectal Carcinoma)
measurementNotes: Bliss excess, mean over the matrix (fraction); higher = more synergy

| molecule | Bliss excess |
| --- | --- |
| COc1cccc2c1C(=O)c1c(O)c3c(c(O)c1C2=O)C[C@@](O)(C(=O)CO)C[C@@H]3O[C@H]1C[C@H](N)[C@H](O)[C@H](C)O1 [Doxorubicin] + Cc1cc2ncnn2cc1Nc1ncc2c(n1)n(C1CCOCC1)c(=O)n2C [AZD7648] (first compound max 1 µM, 7x7, partner max 10 µM) | 0.0099 |
| CN(CCO)CC[C@H](CSc1ccccc1)Nc1ccc(S(=O)(=O)NC(=O)c2ccc(N3CCC([C@@H](O)c4ccccc4-c4ccc(Cl)cc4)CC3)cc2)cc1S(=O)(=O)C(F)(F)F [AZD4320] + C1CN(CCC1(C(=O)N[C@@H](CCO)C2=CC=C(C=C2)Cl)N)C3=NC=NC4=C3C=CN4 [Capivasertib] (first compound max 1 µM, 7x7, partner max 3 µM) | -0.0331 |
| CN(CCO)CC[C@H](CSc1ccccc1)Nc1ccc(S(=O)(=O)NC(=O)c2ccc(N3CCC([C@@H](O)c4ccccc4-c4ccc(Cl)cc4)CC3)cc2)cc1S(=O)(=O)C(F)(F)F [AZD4320] + C=CCn1c(=O)c2cnc(Nc3ccc(N4CCN(C)CC4)cc3)nc2n1-c1cccc(C(C)(C)O)n1 [AZD1775] (first compound max 1 µM, partner max 1 µM) | 0.0055 |

###

Bliss excess values for the molecules below.
Test system: SW1990 (Pancreatic Carcinoma)
measurementNotes: Bliss excess, mean over the matrix (fraction); higher = more synergy
measure: Bliss excess

| molecule | endpointResult |
| --- | --- |
| COc1cc2c(cc1OCCCCCOc1cc3c(cc1OC)C(=O)N1C=C(C)C[C@H]1C=N3)N=C[C@@H]1CC(C)=CN1C2=O [SG3199] + O=C(c1cc(Cc2n[nH]c(=O)c3ccccc23)ccc1F)N1CCN(C(=O)C2CC2)CC1 [Olaparib] (first compound max 0.001 µM, 7x7, partner max 10 µM) | -0.049 |
| CCN(CCO)CCCOc1ccc2c(Nc3cc(CC(=O)Nc4cccc(F)c4)[nH]n3)ncnc2c1 [AZD2811] + O=C(c1cc(Cc2n[nH]c(=O)c3ccccc23)ccc1F)N1CCN(C(=O)C2CC2)CC1 [Olaparib] (first compound max 1 µM, 7x7, partner max 10 µM) | -0.0302 |
| C[C@@H]1COCCN1c1cc(C2([S@](C)(=N)=O)CC2)nc(-c2ccnc3[nH]ccc23)n1 [AZD6738] + O=C(c1cc(Cc2n[nH]c(=O)c3ccccc23)ccc1F)N1CCN(C(=O)C2CC2)CC1 [Olaparib] (first compound max 10 µM, 7x7, partner max 10 µM) | -0.0071 |

###

System: LU-99A (Non-Small Cell Lung Carcinoma)
measurementNotes: combination Emax (second highest fraction inhibited in the dose matrix, 72 h); higher = more inhibition; extreme values may be limits of the assay

| compound | combination Emax |
| --- | --- |
| CCN(CCO)CCCOc1ccc2c(Nc3cc(CC(=O)Nc4cccc(F)c4)[nH]n3)ncnc2c1 [AZD2811] + C[C@@H]1COCCN1C2=NC(=NC(=C2)C3(CC3)[S@](=N)(=O)C)C4=C5C=CNC5=NC=C4 [AZD6738] (first compound max 1 µM, 7x7, partner max 10 µM) | 0.659 |
| CN(CCO)CC[C@H](CSc1ccccc1)Nc1ccc(S(=O)(=O)NC(=O)c2ccc(N3CCC([C@@H](O)c4ccccc4-c4ccc(Cl)cc4)CC3)cc2)cc1S(=O)(=O)C(F)(F)F [AZD4320] + C[C@@H]1COCCN1C2=NC(=NC(=C2)C3(CC3)[S@](=N)(=O)C)C4=C5C=CNC5=NC=C4 [AZD6738] (first compound max 1 µM, 7x7, partner max 10 µM) | 0.838 |
| COc1cccc(OCCCN)c1-c1cc(Nc2cnc(C#N)cn2)n[nH]1 [Prexasertib] + C[C@@H]1COCCN1C2=NC(=NC(=C2)C3(CC3)[S@](=N)(=O)C)C4=C5C=CNC5=NC=C4 [AZD6738] (first compound max 1 µM, 7x7, partner max 10 µM) | 0.767 |
| C=CCn1c(=O)c2cnc(Nc3ccc(N4CCN(C)CC4)cc3)nc2n1-c1cccc(C(C)(C)O)n1 [AZD1775] + C1CN(CCC1(C(=O)N[C@@H](CCO)C2=CC=C(C=C2)Cl)N)C3=NC=NC4=C3C=CN4 [Capivasertib] (first compound max 3 µM, partner max 3 µM) | 0.623 |
| C=CCn1c(=O)c2cnc(Nc3ccc(N4CCN(C)CC4)cc3)nc2n1-c1cccc(C(C)(C)O)n1 [AZD1775] + O=C(c1cc(Cc2n[nH]c(=O)c3ccccc23)ccc1F)N1CCN(C(=O)C2CC2)CC1 [Olaparib] (first compound max 1 µM, partner max 10 µM) | 0.546 |
| Cc1cc2ncnn2cc1Nc1ncc2c(n1)n(C1CCOCC1)c(=O)n2C [AZD7648] + O=C(c1cc(Cc2n[nH]c(=O)c3ccccc23)ccc1F)N1CCN(C(=O)C2CC2)CC1 [Olaparib] (first compound max 10 µM, 7x7, partner max 10 µM) | 0.55 |
| Cc1c2c(nn1C)CSCc1cc(n(C)n1)CSc1cc(c3ccccc3c1)OCCCc1c(C(=O)O)n(C)c3c-2c(Cl)ccc13 [AZD5991] + CCN(CCO)CCCOc1ccc2c(Nc3cc(CC(=O)Nc4cccc(F)c4)[nH]n3)ncnc2c1 [AZD2811] (first compound max 1 µM, 7x7, partner max 1 µM) | 0.37 |
